# assay-system: wild type human growth hormone (human, UniProt P01241 27-217)
# Sequence (P01241 27-217): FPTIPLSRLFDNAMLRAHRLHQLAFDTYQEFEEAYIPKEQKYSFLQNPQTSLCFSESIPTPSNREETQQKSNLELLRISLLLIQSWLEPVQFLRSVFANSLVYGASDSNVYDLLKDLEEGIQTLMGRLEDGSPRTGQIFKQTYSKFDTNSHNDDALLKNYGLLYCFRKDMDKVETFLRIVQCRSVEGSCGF
# assay-method-text: cell-based or functional assay
Lab note: anything with RS (relative selectivity) at or over 3 counts as satisfied; the rest go in not satisfied.

1. GlyPro-mTGase_Y62H_Y75N from S. ladakanum (enzyme) GPDSDERVTPPAEPLDRMPDPYRPSYGRAETIVNNYIRKWQQVYSHRDGRKQQMTEEQREWLSHGCVGVTWVNSGQNPTNRLAFAFFDEDKYKNELKNGRPRSGETRAEFEGRVAKDSFDEAKGFQRARDVASVMNKALENAHDEGAYLDNLKKELANGNDALRNEDARSPFYSALRNTPSFKDRNGGNHDPSKMKAVIYSKHFWSGQDRSGSSDKRKYGDPEAFRPDRGTGLVDMSRDRNIPRSPTSPGESFVNFDYGWFGAQTEADADKTVWTHGNHYHAPNGSLGAMHVYESKFRNWSDGYSDFDRGAYVVTFVPKSWNTAPDKVKQGWP :: satisfied
2. GlyPro-mTGase_Y75N from S. ladakanum (enzyme) GPDSDERVTPPAEPLDRMPDPYRPSYGRAETIVNNYIRKWQQVYSHRDGRKQQMTEEQREWLSYGCVGVTWVNSGQNPTNRLAFAFFDEDKYKNELKNGRPRSGETRAEFEGRVAKDSFDEAKGFQRARDVASVMNKALENAHDEGAYLDNLKKELANGNDALRNEDARSPFYSALRNTPSFKDRNGGNHDPSKMKAVIYSKHFWSGQDRSGSSDKRKYGDPEAFRPDRGTGLVDMSRDRNIPRSPTSPGESFVNFDYGWFGAQTEADADKTVWTHGNHYHAPNGSLGAMHVYESKFRNWSDGYSDFDRGAYVVTFVPKSWNTAPDKVKQGWP :: satisfied
3. AlaPro-mTGase from S. mobaraensis (enzyme) APDSDDRVTPPAEPLDRMPDPYRPSYGRAETVVNNYIRKWQQVYSHRDGRKQQMTEEQREWLSYGCVGVTWVNSGQYPTNRLAFASFDEDRFKNELKNGRPRSGETRAEFEGRVAKESFDEEKGFQRAREVASVMNRALENAHDESAYLDNLKKELANGNDALRNEDARSPFYSALRNTPSFKERNGGNHDPSRMKAVIYSKHFWSGQDRSSSADKRKYGDPDAFRPAPGTGLVDMSRDRNIPRSPTSPGEGFVNFDYGWFGAQTEADADKTVWTHGNHYHAPNGSLGAMHVYESKFRNWSEGYSDFDRGAYVITFIPKSWNTAPDKVKQGWP :: not satisfied
4. GlyPro-mTGase_Y62H_Y75F from S. ladakanum (enzyme) GPDSDERVTPPAEPLDRMPDPYRPSYGRAETIVNNYIRKWQQVYSHRDGRKQQMTEEQREWLSHGCVGVTWVNSGQFPTNRLAFAFFDEDKYKNELKNGRPRSGETRAEFEGRVAKDSFDEAKGFQRARDVASVMNKALENAHDEGAYLDNLKKELANGNDALRNEDARSPFYSALRNTPSFKDRNGGNHDPSKMKAVIYSKHFWSGQDRSGSSDKRKYGDPEAFRPDRGTGLVDMSRDRNIPRSPTSPGESFVNFDYGWFGAQTEADADKTVWTHGNHYHAPNGSLGAMHVYESKFRNWSDGYSDFDRGAYVVTFVPKSWNTAPDKVTQGWP :: satisfied
5. GlyPro-mTGase_Y75F from S. ladakanum (enzyme) GPDSDERVTPPAEPLDRMPDPYRPSYGRAETIVNNYIRKWQQVYSHRDGRKQQMTEEQREWLSYGCVGVTWVNSGQFPTNRLAFAFFDEDKYKNELKNGRPRSGETRAEFEGRVAKDSFDEAKGFQRARDVASVMNKALENAHDEGAYLDNLKKELANGNDALRNEDARSPFYSALRNTPSFKDRNGGNHDPSKMKAVIYSKHFWSGQDRSGSSDKRKYGDPEAFRPDRGTGLVDMSRDRNIPRSPTSPGESFVNFDYGWFGAQTEADADKTVWTHGNHYHAPNGSLGAMHVYESKFRNWSDGYSDFDRGAYVVTFVPKSWNTAPDKVKQGWP :: satisfied
